# Test system: 435261-313-R-J1-PDC tumor spheroid viability;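 also: spheroids exposed to compounds for 7 days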
# test-protocol: Anticancer human tumor 435261-313-R-J1-PDC patient-derived colon adenocarcinoma cell line growth inhibition [PI3K]
# conditions-used: second compound 0.1 µM; first compound 0.316 µM; hits give low values; spheroids with HUVEC and MSC
endpoint: viability, T/C (%)
Numbers only, in %.

# example entries with known answers
| compound | system-under-test | unit-of-measurement | viability, T/C |
| --- | --- | --- | --- |
| CC(Cn1ccc(-c2ccc(C#N)c(Cl)c2)n1)NC(=O)c1cc(C(C)O)[nH]n1 (stereo not given) + CC(Nc1ncnc2nc[nH]c12)c1cc2cccc(Cl)c2c(=O)n1-c1ccccc1 | 435261-313-R-J1-PDC tumor spheroid viability | % | 90.9 |
| CNC(=O)c1ccc(N2C(=S)N(c3ccc(C#N)c(C(F)(F)F)c3)C(=O)C2(C)C)cc1F + Cc1nc(NC(=O)N2CCCC2C(N)=O)sc1-c1ccnc(C(C)(C)C(F)(F)F)c1 | 435261-313-R-J1-PDC tumor spheroid viability | % | 71.5 |
| C=CC(=O)N1CCN(c2nc(=O)n(-c3c(C)ccnc3C(C)C)c3nc(-c4c(O)cccc4F)c(F)cc23)C(C)C1 (stereo not given) + COc1c(OCCCN2CCOCC2)ccc2c3n(c(=NC(=O)c4cnc(N)nc4)nc12)CCN3 | 435261-313-R-J1-PDC tumor spheroid viability | % | 17.5 |
| Cn1ncc(Cl)c1-c1cc(C(=O)NC(CN)Cc2cccc(F)c2)sc1Cl (stereo not given) + CC(Nc1ncnc2nc[nH]c12)c1cc2cccc(Cl)c2c(=O)n1-c1ccccc1 | 435261-313-R-J1-PDC tumor spheroid viability | % | 50 |

Please give the documented viability, T/C of CC1(C)CCC(CN2CCN(c3ccc(C(=O)NS(=O)(=O)c4ccc(NCC5CCOCC5)c([N+](=O)[O-])c4)c(Oc4cnc5[nH]ccc5c4)c3)CC2)=C(c2ccc(Cl)cc2)C1 + Cc1nc(NC(=O)N2CCCC2C(N)=O)sc1-c1ccnc(C(C)(C)C(F)(F)F)c1
93.8
